# test.summary: Agilent ZORBAX 300 SB-C18, 150 × 1 mm, 3.5 µm; A: water + 0.01% heptafluorobutyric acid; B: acetonitrile + 0.01% heptafluorobutyric acid; gradient (min/%B) 0/0 100/90
# cond: stereoisomer not certain
measurement.label: LC retention time (min)

Guide cases for LC retention time, answers given:
Complete the entry with LC retention time for COC1N(c2ccccc2)N=C(c2ccccc2)N1c1ccccc1 (centres undefined)
16.8

Complete the entry with LC retention time for Cc1cc(C)nc(N=C(N)Nc2cccc3ccccc23)n1
10.5

Complete the entry with LC retention time for CC(=O)Nc1cc(NC(C)=O)c(C)c(C(=O)O)c1
6.32

Complete the entry with LC retention time for Cc1[nH]c2ccccc2c1C=NN=Cc1c(C)[nH]c2ccccc12
12

Complete the entry with LC retention time for Cc1ccc(C)c(-c2cc(C)ncc2C)c1
10.6

1: O=C(C=Cc1ccccc1)c1ccc(O)cc1
2: Cc1ccccc1N(C)C
3: Cc1ccc(-c2noc(-c3ccc(C)cc3)c2C)cc1
4: CCCN
# rank by LC retention time, ascending (min first) Give your ranking as a list of the labels in the requested order.
4, 2, 1, 3
(4: 4.83 min, 2: 7.62 min, 1: 12.9 min, 3: 19.3 min)

P: Cc1cccc(NC(=O)C(Cc2c[nH]c3ccccc23)NC(=O)C(c2ccccc2)c2ccccc2)c1 (centres undefined)
Q: CN(Cc1ccccc1)C(=S)Nc1cccnc1
Two entries are listed, P and Q . Which one carries the higher LC retention time? Pick one; state its label.
P
(P: 16.8 min, Q: 9.65 min)

a: CC1N(CCC(N)=O)c2ccccc2C1(C)C (centres undefined)
b: O=C(CNC(=O)c1ccco1)NN=Cc1ccco1
c: Cc1ccc2cccc(SC(c3ccccc3)c3ccccc3)c2n1
Sequence the entries by LC retention time, beginning with the highest number. Give your ranking as a list of the labels in the requested order.
c, a, b
(c: 17.5 min, a: 11.8 min, b: 8.12 min)

P: O=C(Cn1cnc2ccccc2c1=O)NN=Cc1cnc2ccccc2n1
Q: O=C(OCC(c1ccccc1)c1ccccc1)c1cccnc1
Two entries are listed, P and Q . Which one carries the higher LC retention time? Pick one; state its label.
Q
(Q: 15.9 min, P: 10.1 min)

###

# test.summary: Agilent ZORBAX 300 SB-C18, 150 × 1 mm, 3.5 µm; A: water + 0.01% heptafluorobutyric acid; B: acetonitrile + 0.01% heptafluorobutyric acid; gradient (min/%B) 0/0 100/90
# cond: stereoisomer not certain
measurement.label: LC retention time (min)

Complete the entry with LC retention time for Oc1ccc2c(c1)C13CCCCC1(O)C(C2)NCC3 (configuration not stated)
8.57

Complete the entry with LC retention time for O=C(C(=O)c1cccs1)c1ccccc1
14.4

Complete the entry with LC retention time for N=C(N)c1ccc(N)cc1
6.62

Complete the entry with LC retention time for CC1(N)CCC(C(C)(C)N)CC1 (configuration not stated)
7.19

Complete the entry with LC retention time for CC(CCc1ccccc1)NCc1ccco1 (configuration not stated)
9.89

Complete the entry with LC retention time for c1ccc(-c2cnc(-c3cccc4ccccc34)o2)cc1
19.4

Complete the entry with LC retention time for c1ccc(-c2cc(N3CCCCC3)c3ccccc3n2)cc1
12

Complete the entry with LC retention time for COc1ccc(OC)c(C(=O)C=Cc2ccc(OC)c(OC)c2OC)c1
15.2

P: COc1cc2ccccc2cc1CNc1ccccc1
Q: O=S(=O)(O)CCCN1CCOCC1
R: c1c[nH]cn1
S: CN1CCn2c1nc(N1CCOCC1)nc2=O
# rank by LC retention time, ascending (min first) Give your ranking as a list of the labels in the requested order.
Q, R, S, P

a: CC(CCc1ccccc1)NC(=S)Nc1cccnc1 (configuration not stated)
b: CCCCc1ccc(NC=CC(=O)c2ccc(C)cc2)cc1
Two entries are listed, a and b . Which one carries the higher LC retention time? Pick one; state its label.
b
